B1: tRNA (parent)
chain: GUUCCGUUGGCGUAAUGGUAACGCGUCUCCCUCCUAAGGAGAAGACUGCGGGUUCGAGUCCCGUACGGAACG

Variants of: B1
Assay: yeast fitness relative to wild type (ratio to wild type); higher = fitter; tRNA-Arg(CCU), competitive growth, 37 C, YPD
Variants at the floor of the assay were thinned out.
The entries below come with measured yeast fitness values attached.

>>> print(df.to_string())
             mutation_list  result
0  C4U C27U A45C G48A G56C   0.612
1   C5U G6A A15U A21G U54G   ≤ 0.5
2           C22G U28A C31G   ≤ 0.5
3           U26C C29A A36C   ≤ 0.5

Give the measured yeast fitness of C5G U13A C30U .
0.56

Now consider U32A A37C C60A .
≤ 0.5

Now consider U35G A40C .
0.682
